- Test system: TAB113
- PROTOCOL: qHTS profiling for inhibitors of Plasmodium falciparum proliferation (AID 504749); further: nearly all actives have a fitted effect of over 60% in size
- RUN_CONDITIONS: P. falciparum in erythrocytes, SYBR Green DNA, 72 h; series mostly up to 12.8 µM
Records with an inconclusive call do not appear. The source made the active and inactive calls. The call rests on the fitted dose curve; in most records, active means well fitted inhibition curve with a large enough effect; inconclusive means small, poorly fitted or top-dose-only effect; inactive means flat fitted curve, though single readings scatter.
Select the correct class. Options are t = active, f = inactive and nothing else.

Incoming: Please let me know the test result on file for CC(=O)O[C@@H](C)C[N+](C)(C)C .
Outgoing: f

Incoming: Record lookup: outcome of this test for CC(C)(C)NC[C@H](O)c1cc(O)cc(O)c1 ?
Outgoing: f

Incoming: Dear all, I need the recorded test outcome for Cc1cc(/C=C\c2ccc3cc(N(C)C)ccc3[n+]2C)c(C)n1-c1ccccc1 , thank you.
Outgoing: t

Incoming: Please share the test call associated with NC(N)=NC[C@@H]1COC2(CCCCC2)O1 .
Outgoing: f

Incoming: Per the assay record, what outcome was assigned to CN(C)[C@@H]1C(=O)C(C(N)=O)=C(O)[C@]2(O)C(=O)C3=C(O)c4c(O)ccc(Cl)c4[C@H](O)[C@H]3C[C@@H]12 ?
Outgoing: f

====

For each record, write down the corresponding activity, negative = inhibition.
- PROTOCOL: Stat Signaling Pathway (AID 446);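 further: ME-180 cervical cancer cells given 40 pM IL-6 alongside compound; SIE-controlled beta-lactamase reporter measured as 460/530 nm FRET emission ratio; on the % scale 0 is the no-effect control and ±100 the full control effect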
- RUN_CONDITIONS: ME-180 (cervical carcinoma) SIE beta-lactamase reporter, IL-6 stimulated, 5 h; at 7.69 µM (top of the series) unless noted
Results filed as inconclusive are left out.
Express your answer in %, writing the number without its unit.

Incoming: Complete the entry with activity, negative = inhibition for N#Cc1cccc(NC(=O)N2CCCC3(CCN(C(=O)c4cc(C(F)(F)F)cc(C(F)(F)F)c4)CC3)C2)c1
Outgoing: -13.7

Incoming: Provide only the value of recorded activity, negative = inhibition for c1cncc(-c2nccc(NCc3cccs3)n2)c1
Outgoing: -3.1

Incoming: Item COc1cccc(-c2nc(NC3CCNCC3)c3ccccc3n2)c1 : provide activity, negative = inhibition
Outgoing: 5.39

Incoming: Check the records and state activity, negative = inhibition for COc1ccccc1-c1nc(NCc2cccs2)c2ccccc2n1
Outgoing: 21.2

Incoming: Consider the compound COCCn1c(=O)c(-c2ccc(OC)cc2)nc2cnc(Oc3ccc(OC)cc3)nc21 and give its recorded activity, negative = inhibition.
Outgoing: -7.21

====

- PROTOCOL: NFAT Signaling Pathway (AID 444);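 further: carbachol stimulus at about its EC50 of 1 µM final; on the % scale 0 is the no-effect control and ±100 the full control effect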
- RUN_CONDITIONS: Jurkat NFAT-bla M1, carbachol, beta-lactamase ratio, 5 h; at 7.69 µM (top of the series) unless noted
- Protocol: NCGC Assay Overview: The nuclear factor of activated T cells (NFAT) family of transcription factors has been found primarily in most immune system cells and some other non-immune cells. NFAT plays the immunomodulatory role, primarily in T-cell activation and differentiation. […] NCGC Assay Protocol Summary: The cells were prepared in RPMI 1640 medium containing 0.1% dialyzed FBS and 25 mM HEPES at 1.6 x 10^6cell/ml. […] The %Activity was determined from the ratio of 460nm/530nm. […]
Results filed as inconclusive are left out.
For each of the compounds below, state its activity change, negative = inhibition.
Give a bare numeral; the unit % is implied.

Incoming: Consider the compound COc1ncc2nc(-c3ccc(F)cc3)c(=O)n(CCC#N)c2n1 and give its recorded activity change, negative = inhibition.
Outgoing: -5.63

Incoming: Give reported activity change, negative = inhibition value for CC(=O)NCCNc1ncnc2ccc(-c3ccccc3C)cc12
Outgoing: -4.6

Incoming: Item CN(C)c1ncc2nc(-c3cccc(C#N)c3)c(=O)n(C)c2n1 : provide activity change, negative = inhibition
Outgoing: 5.54

Incoming: Consider the compound COc1cccc(Cn2c(=O)c(C)nc3cnc(OCc4ccccc4)nc32)c1 . State its measured activity change, negative = inhibition.
Outgoing: -16.9

Incoming: Look up and report measured activity change, negative = inhibition for this entry: COc1ccc(-c2nc3cnc(OC)nc3n(C)c2=O)cc1
Outgoing: -0.516

Incoming: Query activity change, negative = inhibition for CS(=O)(=O)N1CCC[C@@]2(CCN(Cc3ccc(C#N)cc3)C2)C1
Outgoing: -5.85

Numbers sourced from PubChem BioAssay (NCATS).
